Molecular target: T1, monovalent hVISTA-ECD (human VISTA extracellular domain with His tail) (human, UniProt Q9H7M9 33-193)
T1 construct: analyte flowed over captured antibody; also called huVISTA-His
T1 sequence (Q9H7M9 other isoform, or with tags, fused parts or gaps limits assumed): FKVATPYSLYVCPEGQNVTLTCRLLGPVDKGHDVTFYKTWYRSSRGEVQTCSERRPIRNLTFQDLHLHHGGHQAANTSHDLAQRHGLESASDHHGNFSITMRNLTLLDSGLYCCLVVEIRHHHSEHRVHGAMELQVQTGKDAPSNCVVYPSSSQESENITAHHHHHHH
Assay: SPR
Attribute: KD ratio (pH 7.4/pH 6.0)
// no unit string in output, number only

- Binder: "P1-061528 (41F11 NGS mut VK_A64G/R91A) (antibody, V domains shown, also called P1-061528-2) VH: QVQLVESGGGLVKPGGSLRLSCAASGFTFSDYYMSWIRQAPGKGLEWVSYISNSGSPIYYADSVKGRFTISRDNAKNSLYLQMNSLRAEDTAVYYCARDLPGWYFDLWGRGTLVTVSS VL: EIVLTQSPATLSLSPGERATLSCRASQSVSSYLAWYQQKPGQAPRLLIYDASNRATGIPARFSGSGSGTDFTLTISSLEPEDFAVYYCQQANNWPRTFGQGTKVEIK"
  KD ratio (pH 7.4/pH 6.0): 7.88

// query // KD ratio (pH 7.4/pH 6.0) lookup, key: P1-064540 (41F11_VH_T28P/Y50W/S55E/A60H/Y100E) (antibody, V domains shown, Kabat positions; also called P1-064540-1) VH: QVQLVESGGGLVKPGGSLRLSCAASGFPFSDYYMSWIRQAPGKGLEWVSWISNSGEPIYYHDSVKGRFTISRDNAKNSLYLQMNSLRAEDTAVYYCARDLPGWEFDLWGRGTLVTVSS VL: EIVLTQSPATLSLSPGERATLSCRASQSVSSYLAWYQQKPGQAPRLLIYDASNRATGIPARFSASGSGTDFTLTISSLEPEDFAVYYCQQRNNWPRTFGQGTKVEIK
// result 1.06
